Assign cytotoxicity at 70.5 h to each entry below.
Test: Human HepG2 cell viability assay in 384 well format
Format: toxicity, cell-based
Design: dose 125 nL, time 70.5 hour; concentration not given beside the values
Conditions: HepG2 cells, read-out: Inhibition
State the answer as a number, implicitly in %.

Per the record, CCN1CC2(CC1=O)CN(C(=O)C(C)C)CCN(S(C)(=O)=O)C2 (stereo unspecified) has cytotoxicity at 70.5 h of 19.5

compound `O=C([C@@H]1C[C@@H]2CCN(Cc3ccco3)C[C@H]2O1)N1CCCO1` , cytotoxicity at 70.5 h observed: -0.42

Looking up `Cc1nn(C)cc1-c1cc(C(F)(F)F)nc(NC2CCN(C)CC2)n1` , I found its cytotoxicity at 70.5 h recorded as -4.19

The compound listed as `CCc1noc(CNc2ccc(CC(=O)N3CCSCC3)cc2)n1` has a reported cytotoxicity at 70.5 h of -6.52

Item: `O=C(NCc1ccccn1)Nc1cc(C(F)(F)F)c[nH]c1=O` | cytotoxicity at 70.5 h: 9.08

// field: cytotoxicity at 70.5 h; key: `COC[C@H]1CCCN1c1nccc(-c2cnn(-c3ccccc3C)c2)n1` ; value = -1.39

Given item CCOc1ncccc1C(=O)NCC(O)c1ccc(F)c(F)c1 (stereo unspecified) , the value recorded as its cytotoxicity at 70.5 h is -6.21

Reported cytotoxicity at 70.5 h for `O=C(NC[C@H]1CCCC[C@H]1O)c1cccc2[nH]c(-c3cccs3)nc12` was -5.24

Lab book: cytotoxicity at 70.5 h of `Cn1ccnc1CN1CCN(CCOc2ccccc2F)CC1` noted as -11.2

`Cc1nn(C)cc1Cn1cc(Cl)c(N)n1` has a reported cytotoxicity at 70.5 h of -1.77

Reported cytotoxicity at 70.5 h ( `Cc1ccc(=O)n(CC2(O)CCN(Cc3ccoc3)CC2)n1` ) = -3.06

###

Answer each item with its documented cytotoxicity at 70.5 h.
Experiment: Human HepG2 cell viability assay in 384 well format
Assay type: toxicity, cell-based
Set-up: dose 125 nL, time 70.5 hour; concentration not given beside the values
Settings: HepG2 cells, read-out: Inhibition
Form entry: value (%) — number only.

For record `O=C(CN1CCCS(=O)(=O)CC1)NCc1ccccc1F` the listed cytotoxicity at 70.5 h is -8.4

`Cc1cnn(C2CN(CC(=O)N(C)Cc3cccs3)C2)c1` yielded cytotoxicity at 70.5 h of -11.5

cytotoxicity at 70.5 h reading for `CO[C@H]1CN(Cc2nc3ccccc3n2C)C[C@@]12CCCO2` : 7.3

The value of cytotoxicity at 70.5 h measured for the compound `COc1ccccc1CC(=O)N(C)Cc1cc(C)on1` turned out to be -3.86

So for CC(C)c1nnc2n1CC(CNCc1cccnc1)CC2 (configuration not stated) , the logged cytotoxicity at 70.5 h turned out to be -6.45

Record `COCC(=O)N1CCN(C(=O)CCc2ccsc2)CC1` , field cytotoxicity at 70.5 h: -3.39

Reported cytotoxicity at 70.5 h ( CC1CN(c2ncnc3c2cnn3C)CCN1c1nccs1 (configuration not stated) ) = -4.86

###

Experiment: Human HepG2 cell viability assay in 384 well format
Type: toxicity, cell-based
Parameters: dose 125 nL, time 70.5 hour; concentration not given beside the values
Details: HepG2 cells, read-out: Inhibition
METRIC_NAME: cytotoxicity at 70.5 h (%)
Please respond with the number in % and leave the unit unwritten.

Consider CC(C)NC(=O)NCC(Cc1ccc(F)cc1)C(N)=O (centres undefined) . Its measured cytotoxicity at 70.5 h is 21.5

cytotoxicity at 70.5 h in this record for Cc1noc(C2(C)CCCN(C(=O)c3cccnc3)C2)n1 (centres undefined) : 11.1

For this compound ( CCOC(C)c1noc(CN2CCN(Cc3cccc(F)c3)CC2)n1 (centres undefined) ), measured cytotoxicity at 70.5 h is -7.41

Lab note: `O=C1CCN(C(=O)C2(c3ccc(F)cc3)CCOCC2)CCN1` gave cytotoxicity at 70.5 h of -8.05

Per the records, this compound ( O=C(Cc1cccc(F)c1)NCCNCC1CNc2ccnn2C1 (centres undefined) ) has cytotoxicity at 70.5 h equal to 15.5

Sample `COCCN(C(=O)c1cc(-c2ccc(C)s2)[nH]n1)C1CC1` ; cytotoxicity at 70.5 h observed: -3.98

The reported cytotoxicity at 70.5 h of the compound `CN(Cc1cccc(O)c1)Cc1cnn(C)c1` was -4.55

Form: compound = `Cc1csc(CN2CC[C@H]3C[C@H](c4ccncn4)O[C@@H]3C2)n1` ; cytotoxicity at 70.5 h = -2.15

Per the record, `O=C(COc1ccccc1)N1C[C@@H]2COC[C@]2(COc2cccnc2)C1` has cytotoxicity at 70.5 h of 4.76

Memo: `Cc1nn(C)c(C)c1CC(=O)N1CCC(Nc2cccnn2)CC1` , reported cytotoxicity at 70.5 h: 35.9

The compound identified as `O=S(=O)(c1cnccc1N1CCN(CCO)CC1)N1CCCCC1` registered its cytotoxicity at 70.5 h at 27.8

Given item CC(C)(C)n1ncc2c1NC(=O)CC2c1ccsc1 (centres undefined) , the value recorded as its cytotoxicity at 70.5 h is -5.9

For `Cc1ccc(CN2CCc3[nH]nc(C(=O)N4CCN(C)CC4)c3C2)o1` the compound record lists cytotoxicity at 70.5 h as 23.5

The measured cytotoxicity at 70.5 h associated with `Cc1cc(C)cc(OCCN(C)Cc2cscn2)c1` reads 0.706

Reported cytotoxicity at 70.5 h ( CC(C)C(Sc1nccn1C1CC1)C(=O)NCc1cccnc1 (centres undefined) ) = 16

The reported value for O=C(c1csc(Br)c1)N1CCCC(n2ccnc2)C1 (centres undefined) in terms of cytotoxicity at 70.5 h is 12.4

Short answer for CN1CC(c2ccccc2)CC12CCN(C(=O)c1c(Cl)cnn1C)CC2 (centres undefined) : cytotoxicity at 70.5 h was -7.56

Entry `O=c1[nH]nc(CCCN2CCOCC2)n1-c1ccc(F)cc1F` ; cytotoxicity at 70.5 h = 24.5

`CCCS(=O)(=O)N1C[C@@H](Oc2ccccn2)[C@H]2OCCC[C@H]21` has a reported cytotoxicity at 70.5 h of -1.57

compound CNc1nc(C)c(C(=O)N2CCCCC2CCc2ccccc2)s1 (centres undefined) , cytotoxicity at 70.5 h observed: -5.18

cytotoxicity at 70.5 h in this record for `CN(C(=O)Cc1coc(-c2cccs2)n1)C1(C#N)CCC1` : -6.29

Reported cytotoxicity at 70.5 h ( `Cc1ccc(C(=O)N2CCc3ncnc(C)c3CC2)cc1F` ) = 6.96

Recorded cytotoxicity at 70.5 h (compound O=C(c1ccccn1)N1CCC2(COc3ncccc3S(=O)(=O)N2)C1 (centres undefined) ): -5.57

Record summary for CC(NCc1ccc(OCC(N)=O)cc1)c1ccc(Cl)c(Cl)c1 (centres undefined) : reported cytotoxicity at 70.5 h = -8.72

###

Give measured cytotoxicity at 70.5 h for each item. Keep answers brief.
Experiment: Human HepG2 cell viability assay in 384 well format
Assay type: toxicity, cell-based
Parameters: dose 125 nL, time 70.5 hour; concentration not given beside the values
Settings: HepG2 cells, read-out: Inhibition

Notebook: `COCCN(CC(C)C)c1cc(C)ncn1` , cytotoxicity at 70.5 h read as 6.75%

Per the record, `Cc1nc(CCC(=O)N2Cc3cnc(-c4ccccc4)nc3C2)n[nH]1` has cytotoxicity at 70.5 h of -14.8%

`Cc1nn(-c2ccccn2)c(C)c1[C@@H]1C=C[C@@H](NC(=O)NC(C)C)C1` has a reported cytotoxicity at 70.5 h of 0.445%

Recorded cytotoxicity at 70.5 h (compound `CCC1=N[C@@]2(CC[C@@H]3CN(S(=O)(=O)CC)C[C@@H]32)C(=O)N1CC` ): -2.37%

cytotoxicity at 70.5 h recorded for this compound, `Cc1ccc(CNc2ccccc2SCCC(N)=O)s1` , is -99.2%

The compound `Cc1[nH]c2nc(CNc3ccccc3Cl)nn2c(=O)c1C` showed cytotoxicity at 70.5 h equal to -10.8%

Looking up `CN(Cc1nc(CS(C)(=O)=O)no1)c1ccccc1` , I found its cytotoxicity at 70.5 h recorded as -12.6%

// recorded cytotoxicity at 70.5 h for O=C(c1ccc2c(c1)OCO2)N1CCCC(n2cccn2)C1 (stereo unspecified) : -6.41%

Documented cytotoxicity at 70.5 h of `Cc1cccc(C)c1-n1nnnc1C1(NCc2ccco2)CCCC1` : -6.25%

`CCCc1cc(CN(C)C2CC(C)(C)NC(C)(C)C2)n[nH]1` yielded cytotoxicity at 70.5 h of -4.42%

cytotoxicity at 70.5 h reported for this compound CCC(O)CN1CCN(C(=O)Cc2cc(C)ccc2OC)CC1 (stereo unspecified) : -1.58%

Where do these numbers come from? They come from ChEMBL document CHEMBL3507680.
